# RUN DESCRIPTION: chemical genetic growth profiling, strain panel (AID 1159580);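 further: tested at 20 µM; growth read once vehicle control cultures reached saturation at 30 °C; 1 = growth at the plate median or of vehicle wells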
# DETAILS: S. cerevisiae deletion strains, growth OD, locus YKL193C, strain SDS22
Hit rate of the full screen: of about 5,500 compounds, about 2,000 (36%) were called active. Inconclusive results (about 18%) are left out. No stated cut-off is given here; in the data, active means normalized growth mostly below about 0.91 (no sharp cut-off); inconclusive means no clear call, values can overlap the other calls; inactive means mostly above about 0.92. Some of the results follow.
Lab note: assign the record to one of t (active), f (inactive)

Exam item: Any idea what this test logged for O=[N+]([O-])/C=C/c1ccsc1 ?
Marked response: t

Exam item: Any idea what this test logged for C/C(=C\c1ccc2c(c1)OCO2)[N+](=O)[O-] ?
Marked response: t

Exam item: Any idea what this test logged for O=c1c(Cl)c(-n2cccn2)cnn1-c1ccc(Cl)cc1Cl ?
Marked response: f

Exam item: Any idea what this test logged for O=C(c1ccccc1)c1cc(Cl)ccc1NC(=S)Nc1ccc(F)cc1 ?
Marked response: f

Exam item: Any idea what this test logged for CSc1ccc(/C=C(\C)[N+](=O)[O-])cc1 ?
Marked response: t

Exam item: Any idea what this test logged for FC(F)(F)c1cccc(NNC(=S)Nc2ccccc2)c1 ?
Marked response: f

Exam item: Any idea what this test logged for Cc1ccc(S(=O)(=O)CCSC2=CC(=O)CC(C)(C)S2)cc1 ?
Marked response: f

Exam item: Any idea what this test logged for Cc1cccc(Cl)c1/C=N\NC(N)=S ?
Marked response: t

Exam item: Any idea what this test logged for CC(C)c1ccc(NC(=S)NC(=O)c2ccccc2)cc1 ?
Marked response: f

Exam item: Any idea what this test logged for CC(=O)c1sc(SCCS(=O)(=O)c2ccc(C)cc2)c2c1CC(C)(C)CC2=O ?
Marked response: f

Exam item: Any idea what this test logged for O=[N+]([O-])/C=C/c1ccc(F)cc1 ?
Marked response: t

Exam item: Any idea what this test logged for C=CCOc1ccc(/C=C/[N+](=O)[O-])cc1 ?
Marked response: t

Exam item: Any idea what this test logged for CCCc1c(C(=O)NNc2cccc(Cl)c2)cnn1-c1ccccc1 ?
Marked response: f

Exam item: Any idea what this test logged for N#CC(C#N)=C/C=C(/Sc1nc2ccccc2s1)c1ccc(Br)cc1 ?
Marked response: t

Exam item: Any idea what this test logged for Cc1c(C)c(C)c(CSC(N)=Nc2ccc(F)cc2)c(C)c1C ?
Marked response: f

Exam item: Any idea what this test logged for O=C(NC(=O)c1c(F)cccc1Cl)OCc1ccc(Cl)cc1Cl ?
Marked response: f

Exam item: Any idea what this test logged for CC(C)c1ccc(N2C=Nc3ccc(C(C)C)cc3C2)cc1 ?
Marked response: f

Exam item: Any idea what this test logged for N#CCC(=O)NNC(=S)Nc1ccc(Cl)c(Cl)c1 ?
Marked response: f

Exam item: Any idea what this test logged for FC(F)(F)c1cccc(NC(=S)Nc2csc(C(F)(F)F)c2-c2ccccc2)c1 ?
Marked response: f

Exam item: Any idea what this test logged for O=C(Nc1ccc(N2CCOCC2)cc1)c1ccc(-n2cccn2)cc1 ?
Marked response: f

Exam item: Any idea what this test logged for Cc1nn(Cc2ccc(C(=O)Sc3ccc(C(F)(F)F)cn3)o2)c(C)c1Br ?
Marked response: f

Exam item: Any idea what this test logged for Cc1cc(Br)ccc1-n1c(Sc2c([N+](=O)[O-])cc(C(F)(F)F)cc2[N+](=O)[O-])nc2ccccc2c1=O ?
Marked response: f

Exam item: Any idea what this test logged for O=C(NCCSCc1cccc(C(F)(F)F)c1)c1ccc(Cl)cc1 ?
Marked response: f

Exam item: Any idea what this test logged for O=C(NCCSCc1cccc(C(F)(F)F)c1)Nc1cccc(C(F)(F)F)c1 ?
Marked response: f

Exam item: Any idea what this test logged for CCOC(=O)/C(=N/Nc1c(Cl)cccc1Cl)c1csc(N)n1 ?
Marked response: f

Exam item: Any idea what this test logged for O=C1CSC(c2cccnc2)N1c1ccc(Cl)cc1Cl (stereo not given) ?
Marked response: f

Exam item: Any idea what this test logged for COC(=O)C1=C(C)NC(C)=C(C(=O)OC)C1c1ccc(Cl)cc1Cl ?
Marked response: f

Exam item: Any idea what this test logged for Cc1cc(Cl)ccc1NC(=S)NNC(=S)Nc1ccc(F)cc1 ?
Marked response: f

Exam item: Any idea what this test logged for CCOc1ccc(/C=C(\C)[N+](=O)[O-])cc1OC ?
Marked response: f

Exam item: Any idea what this test logged for CCCc1c(C(=O)NC2Cc3ccccc3C2)cnn1-c1ccccc1 ?
Marked response: f

###

# RUN DESCRIPTION: chemical genetic growth profiling, strain panel (AID 1159580);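 further: tested at 20 µM; growth read once vehicle control cultures reached saturation at 30 °C; 1 = growth at the plate median or of vehicle wells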
# DETAILS: S. cerevisiae deletion strains, growth OD, locus YGL240W, strain doc1, stronger effect = lower value
Among all 5,500 compounds or so, about 2,000 (36%) were called active. Roughly 18% stayed inconclusive and do not appear here. This is one part of the list.
OBSERVABLE: normalized growth

Value of normalized growth reported for the compound NCCCC[C@H](N[C@@H](CCc1ccccc1)C(=O)O)C(=O)N1CCC[C@H]1C(=O)O is 0.92 (inactive)

Value of normalized growth reported for the compound C=C[C@@H](C1=CC(=O)C(OC)=C(OC)C1=O)c1ccccc1 is 0.723 (active)

Value of normalized growth reported for the compound O=C(O)C1=CCNCC1 is 1.03 (inactive)

Value of normalized growth reported for the compound CC(=O)O[C@@H]1C[C@@]2(C)[C@H](c3ccoc3)C[C@H]3O[C@]32[C@]2(C)C(=O)C(O)=C3C(C)(C)C(=O)C=C[C@]3(C)C12 (some centres undefined) is 0.94 (inactive)

Value of normalized growth reported for the compound CC1(C)C(=O)C=C[C@@]2(C)C1=C(O)C(=O)[C@]1(C)C2CC[C@@]2(C)[C@H](c3ccoc3)C[C@H]3O[C@]321 (some centres undefined) is 0.916 (inactive)

Value of normalized growth reported for the compound C1CNCCN1 is 1.01 (inactive)

Value of normalized growth reported for the compound C=CC(C1=CC(=O)C(OC)=CC1=O)c1ccccc1 (centres undefined) is 0.708 (active)

Value of normalized growth reported for the compound CC(=O)/C(=C\c1ccccc1)CC(=O)O is 0.978 (inactive)

Value of normalized growth reported for the compound O=C(O)/C=C/C=C/c1ccccc1 is 0.629 (active)

###

# RUN DESCRIPTION: chemical genetic growth profiling, strain panel (AID 1159580);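 further: tested at 20 µM; growth read once vehicle control cultures reached saturation at 30 °C; 1 = growth at the plate median or of vehicle wells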
# DETAILS: S. cerevisiae deletion strains, growth OD, locus YDR388W, stronger effect = lower value
In all, about 5,500 compounds went through this assay and about 2,000 (36%) were called active. About 18% were inconclusive and are not listed. The list shows a part of the results.
OBSERVABLE: normalized growth
Reply with just the number.

Value of normalized growth reported for the molecule O=[N+]([O-])c1cc(O)c(O)c([N+](=O)[O-])c1 is 0.978

Value of normalized growth reported for the molecule C[C@H](N)[C@H](O)c1ccc(O)c(O)c1 is 0.992

Value of normalized growth reported for the molecule C[n+]1cccc(C(=O)[O-])c1 is 0.996

Value of normalized growth reported for the molecule O=[N+]([O-])c1ccc(O)c([N+](=O)[O-])c1 is 0.694

Value of normalized growth reported for the molecule CC(=O)Nc1ccc(S(=O)(=O)Nc2ccc([N+](=O)[O-])cc2)cc1 is 0.999

Value of normalized growth reported for the molecule O=C1O[C@H](C(O)CO)C(O)=C1O (stereo partly specified) is 0.977

###

Would you mind telling me the reported normalized growth of each entry?
# RUN DESCRIPTION: chemical genetic growth profiling, strain panel (AID 1159580);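 further: tested at 20 µM; growth read once vehicle control cultures reached saturation at 30 °C; 1 = growth at the plate median or of vehicle wells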
# DETAILS: S. cerevisiae deletion strains, growth OD, locus YLR262C, strain YPT6, stronger effect = lower value
In all, about 5,500 compounds went through this assay and about 2,000 (36%) were called active. Roughly 18% stayed inconclusive and do not appear here. The list shows a part of the results.
Reply with just the number.

Value of normalized growth reported for the compound O=[N+]([O-])/C=C/c1ccsc1 is 0.074

Value of normalized growth reported for the compound O=[N+]([O-])c1ccc2nsnc2c1 is 0.83

Value of normalized growth reported for the compound COC(=O)c1cc([N+](=O)[O-])ccc1NC(C)=O is 1.03

Value of normalized growth reported for the compound O=C(NCCSCc1ccc(Cl)cc1)c1ccc(Cl)cc1 is 1.01

Value of normalized growth reported for the compound N[C@@H](Cc1ccc(O)c(O)c1)C(=O)O is 0.898

Value of normalized growth reported for the compound CC(=O)O[C@H]1C[C@@H](OC(C)=O)C(C)(C)C2C[C@@H](OC(C)=O)[C@@]3(C)C4=CC(=O)O[C@@H](c5ccoc5)[C@]4(C)CCC3[C@]21C (stereo partly specified) is 1.09

Value of normalized growth reported for the compound Oc1c(Br)cc(Br)c2cccnc12 is 0.106

Value of normalized growth reported for the compound O=C(NNC(=S)Nc1ccc(F)cc1)c1ccccc1Cl is 0.963

Value of normalized growth reported for the compound O=[N+]([O-])c1cc([As](=O)(O)O)ccc1O is 1.02

Value of normalized growth reported for the compound CCC(Cc1c(I)cc(I)c(N)c1I)C(=O)O (stereo unspecified) is 0.936

Value of normalized growth reported for the compound COc1cc2c(c(OC)c1OC)-c1ccc(OC)c(=O)cc1[C@@H](NC(C)=O)CC2 is 1.04

Value of normalized growth reported for the compound C1CNCCN1 is 1.02

Value of normalized growth reported for the compound CC1(C)CC2C1(O)CCC1(C)C=CC(O)C21CO (stereo unspecified) is 0.936

Value of normalized growth reported for the compound CCCC1O[C@@H]2CC3C4CCC5=CC(=O)C=CC5(C)C4[C@@H](O)CC3(C)[C@]2(C(=O)CO)O1 (stereo partly specified) is 1

Value of normalized growth reported for the compound NC(=S)N/N=C\c1ccc(F)c(Cl)c1 is 1.06

Value of normalized growth reported for the compound O=C(N/N=C\C=C\c1ccccc1)c1ccccc1-n1cccc1 is 0.833

Value of normalized growth reported for the compound CC(=O)Nc1ccc(S(=O)(=O)Nc2ccc([N+](=O)[O-])cc2)cc1 is 1.04

Value of normalized growth reported for the compound O=[N+]([O-])c1ccc(SC2=NCCN2)c(Cl)c1 is 1

Value of normalized growth reported for the compound Fc1cc2n[nH]nc2cc1Cl is 1.06

Value of normalized growth reported for the compound CSc1c(C#N)c(-c2cccs2)nn1C is 0.879

Value of normalized growth reported for the compound O=C(NCCSCc1ccco1)Nc1cc(Cl)cc(Cl)c1 is 0.759

Value of normalized growth reported for the compound NC(=S)N/N=C\c1cccs1 is 1.08

Value of normalized growth reported for the compound O=[N+]([O-])c1cc(O)c(O)c([N+](=O)[O-])c1 is 0.959

Value of normalized growth reported for the compound CC(=O)Nc1cc([N+](=O)[O-])ccc1-n1cc(C)c(C(F)(F)F)n1 is 0.928

Value of normalized growth reported for the compound CN/C(=C\[N+](=O)[O-])NCCSCc1ccc(CN(C)C)o1 is 1.11

Value of normalized growth reported for the compound CCOC(=O)N/N=C\c1cccs1 is 1.05

Value of normalized growth reported for the compound CC(C)N(C(=O)SCC(Cl)=C(Cl)Cl)C(C)C is 0.977

Value of normalized growth reported for the compound NCCNC(=O)c1ccc(Cl)cc1 is 0.996

Value of normalized growth reported for the compound CC(=O)c1sc(SCc2ccc(Cl)cc2)c2c1CC(C)(C)CC2=O is 0.941

Value of normalized growth reported for the compound Cc1ccc(/C(=C\CN2CCCC2)c2ccccn2)cc1 is 1.01

Value of normalized growth reported for the compound C#CCOc1c(Cl)cccc1Cl is 0.838

Value of normalized growth reported for the compound C=CCC1(C(C)CCC)C(=O)N=C(S)NC1=O (stereo unspecified) is 0.853

Value of normalized growth reported for the compound C[C@H](N)[C@H](O)c1ccc(O)c(O)c1 is 1.04

Value of normalized growth reported for the compound CCCC(C)C1(CC)C(=O)NC(=O)NC1=O (stereo unspecified) is 1.11

Value of normalized growth reported for the compound CC(=O)Nc1cc([As](=O)(O)O)ccc1O is 1.01

Value of normalized growth reported for the compound O=C(N/N=C\c1cccs1)c1ccccc1CO is 1.04

Value of normalized growth reported for the compound CN1C(CC(=O)c2ccccc2)CCCC1CC(O)c1ccccc1 (stereo unspecified) is 1.06

Value of normalized growth reported for the compound O=C(O)/C=C/C=C/c1ccccc1 is 0.886

Value of normalized growth reported for the compound CSc1ccc(/C=C/[N+](=O)[O-])cc1 is 0.0583

Value of normalized growth reported for the compound c1ccc2c(c1)cc1ccc3cccc4ccc2c1c34 is 1.04

Value of normalized growth reported for the compound NC(=O)c1ccccc1N1CCCCC1 is 1.02

Value of normalized growth reported for the compound Cc1c(Cl)cccc1NC(=S)Nc1ccc(Cl)cc1C(=O)c1ccccc1 is 0.946

Value of normalized growth reported for the compound O=C(O)CCCCC1CCSS1 (stereo unspecified) is 0.969

Value of normalized growth reported for the compound CN(/N=C\c1ccccc1)c1ncc(C(F)(F)F)cc1Cl is 0.88

Value of normalized growth reported for the compound NC(=NCCC[C@H](N)C(=O)O)NC(CCC(=O)O)C(=O)O (stereo partly specified) is 1.02

Value of normalized growth reported for the compound O=S(=O)(N/N=C\c1ccc(Cl)cc1)c1ccc(-c2ccccn2)s1 is 0.427

Data origin: PubChem BioAssay AID1159580
